Provide the recorded sensor-assay potency score (higher = more potent) for the entries that follow.
# Target Entity: IL12RB2
# Method Summary: pooled miR-30 sensor sort-seq; sequence = guide strand; further: reference of the scale not given here
# Particulars: shRNA
Answer with a number only.

Query: Endpoint output: sensor-assay potency score (higher = more potent) of TTCTGGAGCAACACCAACGAAG . Value?
Response: -0.95

Query: Requested field: sensor-assay potency score (higher = more potent). Item: TTGATTCTTCTGTCAAACTTGT
Response: 0.0343

Query: Give its sensor-assay potency score (higher = more potent) value. Item: TTTGCTTTAATCAACAGCCACG
Response: -1.11

Query: What value of sensor-assay potency score (higher = more potent) has been recorded for this entry: TACCAGACATCTAACATCCCAG
Response: -0.395

Query: Record request: sensor-assay potency score (higher = more potent) value, item TTGTACAGGATTAACTTGTTAC
Response: -0.744

Query: Give the measured sensor-assay potency score (higher = more potent) of TTAGCTGTAGAGTATACTCAGT .
Response: -0.26

Query: Recorded sensor-assay potency score (higher = more potent) for TTGAATTTCATCACTATTGATA , please?
Response: -0.279

Query: I have this sequence here, TTGTCTACTGTAGTCAATGTGC , and I need its recorded sensor-assay potency score (higher = more potent).
Response: -0.32

---

# Target Entity: TRIL
# Method Summary: pooled miR-30 sensor sort-seq; sequence = guide strand
# Particulars: shRNA
Measured Property: sensor-assay potency score (higher = more potent)
Reply with just the number.

Query: What sensor-assay potency score (higher = more potent) value was documented for this sequence, TTGCCGTCTAGATCCAGCCGAT ?
Response: -0.561

Query: Fill in the blank: the reported sensor-assay potency score (higher = more potent) of TTGGTTATGAAGTTGCCGCCGA is ____.
Response: -0.156

Query: What does the record list as sensor-assay potency score (higher = more potent) for TTCTTGTGCAGGTCTAGGGACT ?
Response: -1.42

Query: State the recorded sensor-assay potency score (higher = more potent) for this entry: TAGGTGAGCACGTCGTGGGGGC
Response: -0.151

Query: Given the sequence TTGCACAGAATGAACTTGTTGA , what is its reported sensor-assay potency score (higher = more potent)?
Response: 0.574

Query: Looking for the measured sensor-assay potency score (higher = more potent) of TTGCAGCTGCTGGTCATCCAGG , can you help?
Response: -1.05

Query: Quick one: sensor-assay potency score (higher = more potent) of ATGAACTTGTTGAAGTCGCATG ?
Response: -1.34

---

Kindly state sensor-assay potency score (higher = more potent) for each of the entries shown.
# Target Entity: TJP3
# Method Summary: pooled miR-30 sensor sort-seq; sequence = guide strand
# Particulars: shRNA

Query: sensor-assay potency score (higher = more potent) lookup needed for TTCAGTGACAGGTTCTGGCTAG , thanks.
Response: 0.155

Query: Data request, read-out sensor-assay potency score (higher = more potent), for TTCATCTGCACGTCCTGCCGTG
Response: -0.0273

Query: What sensor-assay potency score (higher = more potent) value was documented for this sequence, ATCGTCTTCATCCGAGTCCTGG ?
Response: -0.452

Query: Which value of sensor-assay potency score (higher = more potent) has been reported for TACCACGTCAGATACAACCATG in the records?
Response: -1.34

Query: // returns reported sensor-assay potency score (higher = more potent) for input TAGAATGAGATCTCCTTCCTGC
Response: 0.597

Query: Recorded sensor-assay potency score (higher = more potent) of TTGAGCTCCTGGTACCAGGTGT , please.
Response: 0.444

Query: What value of sensor-assay potency score (higher = more potent) has been recorded for this entry: TCTAGTTTGATGATCTTGGAGG
Response: -0.916

Query: Reported sensor-assay potency score (higher = more potent), sequence TACAACCATGGATCCACCGGGC : ____
Response: -0.563

Query: Sample ATAGGTTCGCATGCTGTCCTGT — what was its sensor-assay potency score (higher = more potent)?
Response: -0.0267

Query: # sensor-assay potency score (higher = more potent) lookup, item TTCTGGAATCTACTGAACTTTC
Response: -1.4

Query: Please give the measured sensor-assay potency score (higher = more potent) for this sequence: TTGACGCCAAACTCTTCGCTGT
Response: -0.592
